Reported melting point by item:

{"columns": ["compound", "melting point"],
 "data": [
  ["CC(=O)OC1CSC(Oc2cccnc2-c2cccs2)C(OC(C)=O)C1OC(C)=O (stereo unspecified)", "166 °C"],
  ["C=CCN(C(C)=O)c1cccc(-c2ccnc3c(C#N)cnn23)c1", "135 to 137 °C"],
  ["CCCCCCCCC(SCCCCCC)C(=O)NC1(OC)C=C(C)C=CN1 (stereo unspecified)", "83 to 85 °C"],
  ["Cn1nc(C(F)(F)F)n(-c2ccc(I)cc2Cl)c1=S", "117 to 119 °C"],
  ["O=C(Nc1cc2ncc(CN3CCCC3)cc2cc1F)c1ccc(-c2ccc(Cl)cc2)cc1F", "217 to 219 °C"],
  ["CC(C)N(N)C(=O)c1ccc(-c2ccc(Cl)cc2)o1", "142 to 144 °C"],
  ["CCCC(C)c1nn(-c2ccc(C(F)(F)F)cn2)cc1CCCOc1c(CC(=O)O)cccc1OC (stereo unspecified)", "107 to 108 °C"],
  ["C=CCNc1nc(N)nc2c1ncn2C1C=CC(CO)C1 (stereo unspecified)", "181 to 183 °C"],
  ["Oc1cccc(-c2c(-c3ccccc3F)cnc3c(C(F)(F)F)cccc23)c1", "186 to 187 °C"],
  ["Cc1ccc(S(=O)(=O)OCC(=O)CC2CCC(C)CC2)cc1 (stereo unspecified)", "42 to 43.5 °C"],
  ["O=[N+]([O-])c1ccc(-n2ncnc2-c2cnccn2)cc1", "188 to 189 °C"],
  ["CN(C)C=C(C=O)c1ccc(Cl)cc1", "117 to 120 °C"],
  ["COC(=O)c1cc(COc2ccccc2)cc(C(=O)OC)c1", "95 to 97 °C"],
  ["CCCCOc1ccc2cc(C(=O)O)ccc2c1", "175 to 180 °C"],
  ["CN1C(=O)N(C)S(=O)(=O)N(c2ccc(Cl)cc2)C1=O", "82 to 84 °C"],
  ["COC(=O)C(CC#Cc1cc2c(O)c(C(=O)NCc3ccc(Cl)cc3)cnc2s1)C(=O)OC", "197 to 198 °C"],
  ["CCOC(=O)c1ccc([N+](=O)[O-])c(O)c1", "80 to 81 °C"],
  ["Fc1cc(CCl)c(F)cc1CCl", "62.5 to 64.5 °C"],
  ["O=C(/C=C/c1ccccc1)Nc1ccccc1C(=O)O", "188 to 189 °C"],
  ["N#Cc1ccc(-c2ccc(C=Cc3ccccc3)o2)nc1", "154 to 155 °C"],
  ["O=C1CCn2c3c(c4cccc1c42)CCN(C(=O)c1ccccc1)CC3", "178 to 181 °C"],
  ["CC(=O)c1cc(C(C)=O)c(O)cc1N", "227 to 230 °C"],
  ["CC(=O)NCC1CN(c2ccc(-c3cccc(CN)c3)c(F)c2)C(=O)O1 (stereo unspecified)", "170 °C"],
  ["O=C1CCCCN1Cc1ccc[nH]1", "106 °C"],
  ["Cc1cccc(-c2nc(C(C)C)[nH]c2-c2ccc(F)c(-c3ccc(NS(=O)(=O)C4CC4)cc3)c2)n1", "119 to 129 °C"],
  ["N#Cc1c(F)ccc(F)c1N", "90 to 92 °C"],
  ["OC1(C2(Cl)CC2)Cc2ncnn2C(CC(Cl)(Cl)Cl)C1 (stereo unspecified)", "153 to 154 °C"],
  ["CC1(C)CC(O)CC(C)(C)N1N=Nc1ccccc1", "68 to 70 °C"],
  ["Cc1cc2c(o1)c(-c1ccc(COC(=O)CCC(=O)O)o1)nn2Cc1ccccc1", "126 to 129 °C"],
  ["O=C(O)COCCC1CCCN(c2cnc(-c3ccccc3)c(-c3ccccc3)n2)C1 (stereo unspecified)", "139 to 140 °C"],
  ["CCCc1nc2c(N)nc3cc(OCc4ccccc4Cl)ccc3c2n1CC(C)C", "216 to 218 °C"],
  ["CCOC(=O)C1=Cc2cc(-c3ccc(Cl)cc3)ccc2OCC1", "131 to 134 °C"],
  ["O=C(O)c1ccc(OCC2CC(=O)N(c3ccc(OC4CCCC4O)cc3)C2)cc1 (stereo unspecified)", "176 to 178 °C"],
  ["COc1cc(C)ccc1CNC(=O)C(=O)NCCc1ccc(C)cn1", "116 to 117 °C"],
  ["Nc1ccc(OCCCN2C(=O)c3ccccc3C2=O)cc1[N+](=O)[O-]", "164 °C"],
  ["O=c1ccc(-c2c(-c3ccccc3)nn3ccccc23)nn1C1CCCCC1=Cc1nnn[nH]1 (stereo unspecified)", "129 to 131 °C"]
]}
